# ASSAY SYSTEM: NEP (Rattus norvegicus, UniProt P07861)
# Sequence (P07861 whole entry): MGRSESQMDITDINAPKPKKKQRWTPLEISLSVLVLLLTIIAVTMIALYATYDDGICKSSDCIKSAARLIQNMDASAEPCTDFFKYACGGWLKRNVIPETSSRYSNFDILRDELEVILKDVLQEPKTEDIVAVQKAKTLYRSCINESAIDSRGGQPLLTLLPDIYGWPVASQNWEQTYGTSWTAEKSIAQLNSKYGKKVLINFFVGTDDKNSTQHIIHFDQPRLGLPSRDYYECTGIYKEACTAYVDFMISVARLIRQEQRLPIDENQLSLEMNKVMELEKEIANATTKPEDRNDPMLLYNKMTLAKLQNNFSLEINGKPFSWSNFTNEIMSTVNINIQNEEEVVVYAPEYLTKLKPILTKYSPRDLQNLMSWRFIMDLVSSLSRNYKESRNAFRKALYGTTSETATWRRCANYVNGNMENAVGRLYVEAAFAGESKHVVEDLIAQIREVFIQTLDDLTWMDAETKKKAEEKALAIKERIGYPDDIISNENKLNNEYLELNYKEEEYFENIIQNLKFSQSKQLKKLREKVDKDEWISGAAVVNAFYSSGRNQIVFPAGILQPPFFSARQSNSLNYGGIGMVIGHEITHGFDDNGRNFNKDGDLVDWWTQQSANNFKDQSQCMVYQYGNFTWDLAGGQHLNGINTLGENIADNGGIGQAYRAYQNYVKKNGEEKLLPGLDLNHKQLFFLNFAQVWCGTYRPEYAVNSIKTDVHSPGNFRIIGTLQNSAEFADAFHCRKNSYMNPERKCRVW
# TEST DESCRIPTION: NEP inhibition activity (Experiment E-1)
# Assay type: biochemical
# Parameters: membrane fraction prepared from rat renal cortex; from tissue; host or cells: rat renal cortex, membrane fraction (method of Booth and Kenny)
# STUDY CONDITIONS: rat renal cortex membrane fraction
ENDPOINT: pIC50
Hey, just a heads up that pIC50 is the negative log base 10 of the concentration in molar.

CC[C@H](C)[C@H](S)C(=O)N[C@H]1Cc2ccc(-c3ccccc3)cc2[C@H]2CCC[C@@H](C(=O)O)N2C1=O | 7.85
O=C(N[C@H]1Cc2ccccc2[C@H]2CCC[C@@H](C(=O)O)N2C1=O)[C@@H](S)Cc1ccccc1 [Comp. cpd. E-1, reference compound] | 7.57
CC(C)[C@H](S)C(=O)N[C@H]1Cc2ccc(-c3ccccc3)cc2[C@H]2CCC[C@@H](C(=O)O)N2C1=O | 8.09
COc1ccc(C[C@H](S)C(=O)N[C@H]2Cc3ccc(-c4ccccc4)cc3[C@H]3CCC[C@@H](C(=O)O)N3C2=O)cc1 | 7.35

Task item: So what does the record say about pIC50 for O=C(N[C@H]1Cc2ccc(-c3ccccc3)cc2[C@H]2CCC[C@@H](C(=O)O)N2C1=O)[C@@H](S)Cc1ccccc1 ?
Reply: 7.55
